System: NCI-H226 lung
Experiment: NCI-60 one-dose screen, 48 h (100 = growth as untreated, 0 = no growth, -100 = all killed)
Details: 10 µM unless noted
Description: Growth inhibition of the NCI-H226 human Non-Small Cell Lung tumor cell line is measured as a screen for anti-cancer activity. Cells are grown in 96 well plates and exposed to the test compound for 48 hours. Compounds are tested at a single concentration, which is 10^-5 M for most compounds. The reported endpoint is percent growth (GI% or GIPRCNT), where numbers from 0 - 100% represent growth inhibition, and numbers from -100% - 0 represent cell death. […]
About 83,000 compounds went through this panel and 20% of them were active in at least one assay; those are over-represented in the sample as a whole. Activity calls are given as the source filed them. How the source made its calls: active means growth percent below 10; inactive means the rest.
quantity-measured: growth

{"molecule-smiles": "CN(C)c1ccc(C(=NO)c2ccc(N(C)C)cc2)cc1", "test-target": "NCI-H226 lung", "obs-value": "78.5% (inactive)"}
{"molecule-smiles": "CC[C@H](Nc1nc(N)nc(C)c1C#N)c1nc2cccc(NCCCCCC(=O)NO)c2c(=O)n1-c1ccccc1", "test-target": "NCI-H226 lung", "obs-value": "75% (inactive)"}
{"molecule-smiles": "COc1ccc(Cc2nnc(Nc3nc4ccccc4s3)s2)cc1", "test-target": "NCI-H226 lung", "obs-value": "98.3% (inactive)"}
{"molecule-smiles": "C=C1C(=O)O[C@H]2[C@H]1CC/C(Cn1cc(-c3cc(C(F)(F)F)cc(C(F)(F)F)c3)nn1)=C\\CC[C@@]1(C)O[C@@H]21", "test-target": "NCI-H226 lung", "obs-value": "-54.5% (active)"}

# input for lookup
Prompt: Provide the reported growth (system: NCI-H226 lung) for COc1ccc(-c2ccc(-c3ccc(C(=N)N)cn3)s2)cc1
Completion: 84.5% (inactive)

###

tested on: HCC-2998 colon; test: NCI-60 one-dose screen, 48 h (100 = growth as untreated, 0 = no growth, -100 = all killed); details: 10 µM unless noted
About 83,000 compounds went through this panel and 20% of them were active in at least one assay; those are over-represented in the sample as a whole.
Would you mind classing the entries by growth? Ranges: low = under 60%, intermediate = from 60% up to 90%, high = 90% and over

Recorded results for 8 compounds are shown here.
{"compound": "COc1ccc(C2=Nc3c(N)ncnc3NC(c3cccc(Nc4ccnc5cc(C(F)(F)F)ccc45)c3)C2)cc1 (stereo unspecified)", "class": "intermediate"}
{"compound": "CCCCCCC(CCCC)COC(=O)c1ccc(Cl)cc1 (stereo unspecified)", "class": "high"}
{"compound": "C=CC(=O)N1CCN(c2ccc3cccc(NC(=O)c4cnc(C)cn4)c3n2)CC1", "class": "intermediate"}
{"compound": "CC(C)[C@@]12C[C@@H](OC(=O)COC(=O)c3ccccc3)[C@@](C)(O1)[C@@H]1CC[C@@H](C)[C@H]1[C@@H]2OC(=O)/C=C/c1ccccc1", "class": "high"}
{"compound": "COc1ccc2cc(-c3ccc(-c4ccc(C(=N)N)s4)s3)ccc2c1", "class": "low"}
{"compound": "O=C(CSc1nc2ccc([N+](=O)[O-])cc2[nH]1)Nc1cccc([N+](=O)[O-])c1", "class": "intermediate"}
{"compound": "Cc1cc2nc3c4ccccc4n(CCN(C)C)c3nc2cc1C", "class": "low"}
{"compound": "O=c1oc2c(cnc3ccccc32)cc1-c1cccs1", "class": "high"}

Prompt: Form: Item = O=C1Nc2ccccc2/C1=C/c1cn(C[C@@H](O)Cn2c3ccccc3c(=O)c3ccccc32)c2ccccc12 ; Class = ?
Completion: intermediate

Prompt: Hey, which category is N/C(=N\c1nc2ccccc2s1)NC(=NC1CCCCC1)NC1CCCCC1 in, do you know?
Completion: low

Prompt: Could you tell me which band C=NNc1ccccc1 belongs to?
Completion: high
